# Species on record: Rattus norvegicus
# test-name: Open TG-GATES - Regimen: Single
# Type: toxicity, organism-based, Sprague-Dawley
# Design: regimen Single, gender Male, age 6 weeks
# reported-conditions: in vivo, po, 0 mg/kg, 6 h, tissue Plasma, route gavage, dose level Control
parameter: DBIL (mg/dL)
Use mg/dL as the unit, but write only the number.

compound: Cn1cc[nH]c1=S
test-result: 0
--
compound: Cc1cccc(C)c1OCC(C)N (centres undefined)
test-result: 0

Memo: C[C@H]1C(=O)O[C@@H]2CCN3CC=C(COC(=O)[C@](C)(O)[C@]1(C)O)[C@H]23 , reported DBIL: 0.004

GET /value?item= C[C@H]1O[C@H](O[C@H]2[C@H](O)[C@@H](O)[C@@H](O[C@H]3[C@H](O)[C@@H](O)C(O)O[C@@H]3CO)O[C@@H]2CO)[C@H](O)[C@@H](O)[C@@H]1N[C@H]1C=C(CO)[C@@H](O)[C@H](O)[C@H]1O (some centres undefined) &field=DBIL returns 0.004

---

# Organism: Rattus norvegicus
# test-name: Open TG-GATES - Regimen: Single
# Type: toxicity, organism-based, Sprague-Dawley
# Parameters: regimen Single, gender Male, age 6 weeks
# reported-conditions: in vivo, po, 0 mg/kg, 24 h, tissue Plasma, route gavage, dose level Control
parameter: ALP (IU/L)
Write the value in IU/L as a bare number.

Some entries whose results are on file:
compound: O=[N+]([O-])c1ccc(O)c([N+](=O)[O-])c1
test-result: 1480.2
//
compound: CCOC(=O)C(C)(C)Oc1ccc(Cl)cc1 [CLOFIBRATE]
test-result: 1006.2
//
compound: Cc1ccc2cc3c(ccc4ccccc43)c3c2c1CC3
test-result: 1697

Turning now to a further compound:
Data point: C=C(C)[C@H]1Cc2c(ccc3c2O[C@@H]2COc4cc(OC)c(OC)cc4[C@@H]2C3=O)O1 ; ALP = 1476.8

---

# Organism: Rattus norvegicus
# test-name: Open TG-GATES - Regimen: Daily Repeat
# Assay type: toxicity, organism-based, Sprague-Dawley
# Design: regimen Daily Repeat, gender Male, age 6 weeks
# reported-conditions: in vivo, po, 0 mg/kg, […], tissue Liver, route gavage, dose level Control, time 14 day
parameter: LIVER (g)
Number in g, nothing else.

# LIVER of C[C@H]1O[C@H](O[C@H]2[C@H](O)[C@@H](O)[C@@H](O[C@H]3[C@H](O)[C@@H](O)C(O)O[C@@H]3CO)O[C@@H]2CO)[C@H](O)[C@@H](O)[C@@H]1N[C@H]1C=C(CO)[C@@H](O)[C@H](O)[C@H]1O (stereo partly drawn) [ACARBOSE] = 13.2

// LIVER lookup, compound = CCOC(=O)C(C)(C)Oc1ccc(Cl)cc1 [CLOFIBRATE] , result: 14.9

Input C[C@H]1C(=O)O[C@@H]2CCN3CC=C(COC(=O)[C@](C)(O)[C@]1(C)O)[C@H]23 [MONOCROTALINE] . Output LIVER: 13.3

---

# Organism: Rattus norvegicus
# test-name: Open TG-GATES - Regimen: Daily Repeat
# Type: toxicity, organism-based, Sprague-Dawley
# Parameters: regimen Daily Repeat, gender Male, age 6 weeks
# reported-conditions: in vivo, po, 0 mg/kg, […], tissue Plasma, route gavage, dose level Control, time 14 day
Below: a set of entries, each annotated with reported Ca.
Give just the numeric value; mg/dL need not be written.

molecule: Cn1cc[nH]c1=S
unit: mg/dL
Ca: 10.6
--
molecule: O=C1CN(/N=C/c2ccc([N+](=O)[O-])o2)C(=O)N1
unit: mg/dL
Ca: 10.4
--
molecule: O=[N+]([O-])c1ccc(O)c([N+](=O)[O-])c1
unit: mg/dL
Ca: 11.4
--
molecule: C=C(C)[C@H]1Cc2c(ccc3c2O[C@@H]2COc4cc(OC)c(OC)cc4[C@@H]2C3=O)O1
unit: mg/dL
Ca: 11.5

response.value for CCOC(=O)C(C)(C)Oc1ccc(Cl)cc1 [CLOFIBRATE] (field: Ca) = 10.6

---

# Species: Rattus norvegicus
# test-name: Open TG-GATES - Regimen: Single
# Assay type: toxicity, organism-based, Sprague-Dawley
# Parameters: regimen Single, gender Male, age 6 weeks
# reported-conditions: in vivo, po, 0 mg/kg, 9 h, tissue Plasma, route gavage, dose level Control
parameter: BUN (mg/dL)
Report as a plain number; the unit mg/dL is understood.

compound: Cc1ccc2cc3c(ccc4ccccc43)c3c2c1CC3
BUN, mg/dL: 10.6

compound: C=C(C)[C@H]1Cc2c(ccc3c2O[C@@H]2COc4cc(OC)c(OC)cc4[C@@H]2C3=O)O1
BUN, mg/dL: 9.8

compound: CCOC(=O)C(C)(C)Oc1ccc(Cl)cc1 [CLOFIBRATE]
BUN, mg/dL: 11.2

compound: Cc1cccc(C)c1OCC(C)N (stereo not given)
BUN, mg/dL: 12.2

Note: attention shifts to another entry.
So for OCCN1CCN(CCCN2c3ccccc3Sc3ccc(C(F)(F)F)cc32)CC1 , the logged BUN turned out to be 11.8

---

# Species: Rattus norvegicus
# test-name: Open TG-GATES - Regimen: Single
# Format: toxicity, organism-based, Sprague-Dawley
# Design: regimen Single, gender Male, age 6 weeks
# reported-conditions: in vivo, po, 0 mg/kg, 24 h, tissue Kidney, route gavage, dose level Control
List of KIDNEY_L values.
Field: numeric (g). Do not append units.

compound: Cc1cccc(C)c1OCC(C)N (configuration not stated)
KIDNEY_L [g]: 1
//
compound: OCCN1CCN(CCCN2c3ccccc3Sc3ccc(C(F)(F)F)cc32)CC1
KIDNEY_L [g]: 0.9
//
compound: O=C1CN(/N=C/c2ccc([N+](=O)[O-])o2)C(=O)N1
KIDNEY_L [g]: 1

Lookup result for CCOC(=O)C(C)(C)Oc1ccc(Cl)cc1 [CLOFIBRATE] ; measured KIDNEY_L: 1

The compound C[C@H]1O[C@H](O[C@H]2[C@H](O)[C@@H](O)[C@@H](O[C@H]3[C@H](O)[C@@H](O)C(O)O[C@@H]3CO)O[C@@H]2CO)[C@H](O)[C@@H](O)[C@@H]1N[C@H]1C=C(CO)[C@@H](O)[C@H](O)[C@H]1O (some centres not stated) showed KIDNEY_L equal to 1

Value of KIDNEY_L reported for the compound C[C@H]1C(=O)O[C@@H]2CCN3CC=C(COC(=O)[C@](C)(O)[C@]1(C)O)[C@H]23 is 1

// recorded KIDNEY_L for Cc1ccc2cc3c(ccc4ccccc43)c3c2c1CC3 : 0.9

---

# Organism: Rattus norvegicus
# test-name: Open TG-GATES - Regimen: Single
# Format: toxicity, organism-based, Sprague-Dawley
# Set-up: regimen Single, gender Male, age 6 weeks
# reported-conditions: in vivo, po, 0 mg/kg, 3 h, tissue Plasma, route gavage, dose level Control
Listing of entries alongside the reported Na.
Reply with just the number (in meq/L).

Sample records with Na:
compound: C[C@H]1O[C@H](O[C@H]2[C@H](O)[C@@H](O)[C@@H](O[C@H]3[C@H](O)[C@@H](O)C(O)O[C@@H]3CO)O[C@@H]2CO)[C@H](O)[C@@H](O)[C@@H]1N[C@H]1C=C(CO)[C@@H](O)[C@H](O)[C@H]1O (some centres undefined)
unit: meq/L
Na: 141.4
--
compound: Cc1ccc2cc3c(ccc4ccccc43)c3c2c1CC3
unit: meq/L
Na: 140.3
--
compound: O=[N+]([O-])c1ccc(O)c([N+](=O)[O-])c1
unit: meq/L
Na: 138.6
--
compound: Cc1cccc(C)c1OCC(C)N (centres undefined)
unit: meq/L
Na: 142
--
compound: OCCN1CCN(CCCN2c3ccccc3Sc3ccc(C(F)(F)F)cc32)CC1
unit: meq/L
Na: 138

// CCOC(=O)C(C)(C)Oc1ccc(Cl)cc1 [CLOFIBRATE] : Na value = 139

Lab note: measured Na of C[C@H]1C(=O)O[C@@H]2CCN3CC=C(COC(=O)[C@](C)(O)[C@]1(C)O)[C@H]23 was 142.6

Record C=C(C)[C@H]1Cc2c(ccc3c2O[C@@H]2COc4cc(OC)c(OC)cc4[C@@H]2C3=O)O1 , field Na: 140.4

Record summary for Cn1cc[nH]c1=S : reported Na = 142

---

Entries and their Eos values follow.
# Species on record: Rattus norvegicus
# test-name: Open TG-GATES - Regimen: Single
# Type: toxicity, organism-based, Sprague-Dawley
# Set-up: regimen Single, gender Male, age 6 weeks
# reported-conditions: in vivo, po, 0 mg/kg, 9 h, tissue Blood, route gavage, dose level Control
Field: value (include unit after the number)

// recorded Eos for CCOC(=O)C(C)(C)Oc1ccc(Cl)cc1 [CLOFIBRATE] : 1%

Reported Eos ( C=C(C)[C@H]1Cc2c(ccc3c2O[C@@H]2COc4cc(OC)c(OC)cc4[C@@H]2C3=O)O1 ) = 1%

Recorded Eos (molecule C[C@H]1O[C@H](O[C@H]2[C@H](O)[C@@H](O)[C@@H](O[C@H]3[C@H](O)[C@@H](O)C(O)O[C@@H]3CO)O[C@@H]2CO)[C@H](O)[C@@H](O)[C@@H]1N[C@H]1C=C(CO)[C@@H](O)[C@H](O)[C@H]1O (stereo not given in full) ): 0.8%

The molecule Cn1cc[nH]c1=S showed Eos equal to 0.8%

# molecule O=C1CN(/N=C/c2ccc([N+](=O)[O-])o2)C(=O)N1 ; its Eos = 1%
